# target system: PAF receptor (Oryctolagus cuniculus)
# protocol details: PAF receptor binding assay: inhibition of specific [^3 H]C18 -PAF binding to rabbit platelet membranes
# settings: rabbit platelet membranes; 0.6 nM [^3 H]C18 -PAF; 60 minutes at room temperature; pH 7.0; Ki by Cheng and Prusoff from IC50; read-out: Ki
pKi: −log10 of the molar value. Counter-ions that a name gives are not always drawn.
Definition: the class of an entry is the range in L = under 7, M = from 7 up to 8, H = 8 and over that contains its pKi.

Field: example entries. Status: answers known.
molecule: Cc1nc2cnccc2n1CC1CCN(C(=O)c2cn(C(=O)N(C)C)c3cccc(Cl)c23)CC1 [Example 7, hydrochloride]
target system: PAF receptor (Oryctolagus cuniculus)
label: M

molecule: Cc1nc2cnccc2n1C1CCN(S(=O)(=O)c2cn(C(=O)OC(C)(C)C)c3cc(-c4ccc(F)cc4)ccc23)CC1
target system: PAF receptor (Oryctolagus cuniculus)
label: L

molecule: Cc1nc2cnccc2n1C1CCN(CC(=O)c2c[nH]c3cccc(Cl)c23)CC1
target system: PAF receptor (Oryctolagus cuniculus)
label: M

molecule: Cc1cccc2c1c(C(=O)CN1CCC(n3c(C)nc4cnccc43)CC1)cn2C(=O)N(C)C
target system: PAF receptor (Oryctolagus cuniculus)
label: H

molecule: COC(=O)c1cccc2c1c(C(=O)[C@H]1CC[C@H](Cn3c(C)nc4cnccc43)CC1)cn2C(=O)N(C)C [Example 30, hydrochloride]
target system: PAF receptor (Oryctolagus cuniculus)
label: H

molecule: Cc1nc2cnccc2n1CCN1CCN(C(=O)c2cn(C(=O)N(C)C)c3cc(-c4ccc(F)cc4)ccc23)CC1 [Example 11, hydrochloride]
target system: PAF receptor (Oryctolagus cuniculus)
label: M

Which bin should I file COC(=O)c1cccc2c1c(C(=O)N1CCN(CCn3c(C)nc4cnccc43)CC1)cn2C(=O)N(C)C [Example 10, hydrochloride] under? L

Place this molecule in its band: Cc1nc2cnccc2n1C1CCN(C(=O)c2cn(C(=O)N(C)C)c3cc(-c4ccc(F)cc4)ccc23)CC1 [Example 1, hydrochloride] H

Hi there! Could you help me figure out the category for `Cc1nc2cnccc2n1C1CCN(CC(=O)c2cn(C(=O)N(C)C)c3cc(-c4ccc(F)cc4)ccc23)CC1` please? H

Band for `Cc1nc2cnccc2n1CC1CCN(S(=O)(=O)c2cn(C(=O)N(C)C)c3cc(-c4ccc(F)cc4)ccc23)CC1` ? H

Determine which band this molecule sits in: Cc1nc2cnccc2n1CC1CCN(C(=O)c2cn(C(=O)N(C)C)c3cc(-c4ccc(F)cc4)ccc23)CC1 [Example 6, hydrochloride] H

----------
# target system: PAF receptor (Oryctolagus cuniculus, UniProt G1TEI7)
# Sequence (G1TEI7 1-342): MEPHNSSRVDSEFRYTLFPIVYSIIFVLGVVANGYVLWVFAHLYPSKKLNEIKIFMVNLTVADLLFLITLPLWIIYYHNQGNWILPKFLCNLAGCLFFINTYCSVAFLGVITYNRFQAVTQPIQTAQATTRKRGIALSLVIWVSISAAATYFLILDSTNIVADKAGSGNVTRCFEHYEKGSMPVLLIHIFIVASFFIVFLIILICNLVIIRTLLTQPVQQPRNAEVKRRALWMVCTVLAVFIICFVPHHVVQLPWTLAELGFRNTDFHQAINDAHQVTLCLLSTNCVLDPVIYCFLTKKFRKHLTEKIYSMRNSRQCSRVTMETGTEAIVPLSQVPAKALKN
# protocol details: PAF receptor binding assay: inhibition of specific [^3 H]C18 -PAF binding to rabbit platelet membranes
# settings: rabbit platelet membranes; 0.6 nM [^3 H]C18 -PAF; 60 minutes at room temperature; pH 7.0; Ki by Cheng and Prusoff from IC50; read-out: Ki
Structures can show the parent of a compound that is named as a salt.
List of pKi values.
The quantity pKi is defined as the negative base-10 logarithm of the molar concentration.

Please review the entries below; each comes with its answer.
molecule: Cc1nc2cnccc2n1C1CCN(S(=O)(=O)c2cn(C(=O)N(C)C)c3cc(-c4ccc(F)cc4)ccc23)CC1 [Example 14, hydrochloride]
numeric value: 6.92
//
molecule: COC(=O)c1cccc2c1c(C(=O)N1CCC(n3c(C)nc4cnccc43)CC1)cn2C(=O)N(C)C [Example 4, hydrochloride]
numeric value: 6.85
//
molecule: Cc1cccc2[nH]cc(C(=O)CN3CCC(n4c(C)nc5cnccc54)CC3)c12
numeric value: 7.15
//
molecule: Cc1nc2cnccc2n1C1CCN(CC(=O)c2c[nH]c3cc(-c4ccc(F)cc4)ccc23)CC1
numeric value: 7.02
//
molecule: Cc1nc2cnccc2n1C1CCN(C(=O)c2c[nH]c3cc(-c4ccc(F)cc4)ccc23)CC1 [Example 2, hydrochloride]
numeric value: 7.36

Need pKi, item `Cc1nc2cnccc2n1CC1CCN(S(=O)(=O)c2c[nH]c3cc(-c4ccc(F)cc4)ccc23)CC1` 6.60

So what does the record say about pKi for `COC(=O)c1cccc2[nH]cc(C(=O)CN3CCC(n4c(C)nc5cnccc54)CC3)c12` ? 7.85

Provenance of the data: patent US5567711A
